# Protocol summary: Whole-blood pharmacokinetics of CBD and THC after single oral dose of Cannabis sativa extract
# Condition context: male, Wistar, rat, whole blood, oral, 30 mg/kg, mean concentration over time, Blood/Rapae Oleum; 24 h; single oral dose of extract 30 mg/kg; Table 7
Form field: concentration at 24 h (one value per entry).
Note: unit ng/mL is implicit; provide only the numeric part.

>  <Compound>
CCCCCc1cc(O)c2c(c1)OC(C)(C)[C@@H]1CCC(C)=C[C@@H]21 [THC, Δ-9-tetrahydrocannabinol]

>  <Readout unit>
ng/mL

>  <concentration at 24 h>
0.445

$$$$

Now consider the entry below.
Looking up C=C(C)[C@@H]1CCC(C)=C[C@H]1c1c(O)cc(CCCCC)cc1O , I see its concentration at 24 h listed as 2.76

----------
Form field: AUC(0-t) (one value per entry).
# Protocol summary: Whole-blood pharmacokinetics of CBD and THC after single oral dose of Cannabis sativa extract
# Condition context: male, Wistar, rat, whole blood, po, 30 mg/kg, AUC0–24, whole blood; Cremophor; single oral dose of extract 30 mg/kg
State the value with its unit after it.

>  <Compound>
C=C(C)[C@@H]1CCC(C)=C[C@H]1c1c(O)cc(CCCCC)cc1O

>  <AUC(0-t)>
0.988 µg·h/mL

$$$$

Now consider the entry below.
Looking up CCCCCc1cc(O)c2c(c1)OC(C)(C)[C@@H]1CCC(C)=C[C@@H]21 [THC, Δ-9-tetrahydrocannabinol] , I see its AUC(0-t) listed as 0.217 µg·h/mL

----------
# Protocol summary: Whole-blood pharmacokinetics of CBD and THC after single oral dose of Cannabis sativa extract
# Condition context: male, Wistar, rat, whole blood, oral, 30 mg/kg, mean concentration over time, Blood/Cremophor; 4 h; single oral dose of extract 30 mg/kg; Table 7
Form field: concentration at 4 h (one value per entry).
Note: unit ng/mL is implicit; provide only the numeric part.

>  <Molecule>
C=C(C)[C@@H]1CCC(C)=C[C@H]1c1c(O)cc(CCCCC)cc1O

>  <concentration at 4 h (ng/mL)>
35.1

$$$$

Now consider the entry below.
Looking up CCCCCc1cc(O)c2c(c1)OC(C)(C)[C@@H]1CCC(C)=C[C@@H]21 [THC, Δ-9-tetrahydrocannabinol] , I see its concentration at 4 h listed as 8.01

----------
# Protocol summary: Whole-blood pharmacokinetics of CBD and THC after single oral dose of Cannabis sativa extract
# Condition context: male, Wistar, rat, whole blood, oral, 30 mg/kg, mean concentration over time, Blood/Rapae Oleum; 6 h; single oral dose of extract 30 mg/kg; Table 7
Form field: concentration at 6 h (one value per entry).
Note: unit ng/mL is implicit; provide only the numeric part.

>  <Molecule>
C=C(C)[C@@H]1CCC(C)=C[C@H]1c1c(O)cc(CCCCC)cc1O

>  <Value observed>
37.6

$$$$

Looking up CCCCCc1cc(O)c2c(c1)OC(C)(C)[C@@H]1CCC(C)=C[C@@H]21 [THC, Δ-9-tetrahydrocannabinol] , I see its concentration at 6 h listed as 10.3

----------
Form field: concentration at 6 h (one value per entry).
# Protocol summary: Whole-blood pharmacokinetics of CBD and THC after single oral dose of Cannabis sativa extract
# Condition context: male, Wistar, rat, whole blood, oral, 30 mg/kg, Mean Concentration ± SD, blood; Rapae oleum; 6 h; single oral dose of extract 30 mg/kg
Note: unit ng/g is implicit; provide only the numeric part.

>  <Compound>
C=C(C)[C@@H]1CCC(C)=C[C@H]1c1c(O)cc(CCCCC)cc1O

>  <concentration at 6 h / ng/g>
37.6

$$$$

Now consider the entry below.
Looking up CCCCCc1cc(O)c2c(c1)OC(C)(C)[C@@H]1CCC(C)=C[C@@H]21 [THC, Δ-9-tetrahydrocannabinol] , I see its concentration at 6 h listed as 10.3

----------
# Protocol summary: Whole-blood pharmacokinetics of CBD and THC after single oral dose of Cannabis sativa extract
# Condition context: male, Wistar, rat, whole blood, oral, 30 mg/kg, Mean Concentration ± SD, blood; Rapae oleum; 4 h; single oral dose of extract 30 mg/kg
Form field: concentration at 4 h (one value per entry).
Note: unit ng/g is implicit; provide only the numeric part.

>  <Compound>
CCCCCc1cc(O)c2c(c1)OC(C)(C)[C@@H]1CCC(C)=C[C@@H]21 [THC, Δ-9-tetrahydrocannabinol]

>  <Value observed>
26.2

$$$$

Now consider the entry below.
Looking up C=C(C)[C@@H]1CCC(C)=C[C@H]1c1c(O)cc(CCCCC)cc1O [CBD, cannabidiol] , I see its concentration at 4 h listed as 154

----------
# Protocol summary: Whole-blood pharmacokinetics of CBD and THC after single oral dose of Cannabis sativa extract
# Condition context: male, Wistar, rat, whole blood, po, 30 mg/kg, MRT; Rapae oleum; single oral dose of extract 30 mg/kg
Endpoint: MRT

>  <Compound>
CCCCCc1cc(O)c2c(c1)OC(C)(C)[C@@H]1CCC(C)=C[C@@H]21 [THC, Δ-9-tetrahydrocannabinol]

>  <MRT>
5.75 h

$$$$

Looking up C=C(C)[C@@H]1CCC(C)=C[C@H]1c1c(O)cc(CCCCC)cc1O , I see its MRT listed as 4.03 h

----------
# Protocol summary: Whole-blood pharmacokinetics of CBD and THC after single oral dose of Cannabis sativa extract
# Condition context: male, Wistar, rat, whole blood, oral, 30 mg/kg, Mean Concentration, blood; Cremophor; 1 h; single oral dose of extract 30 mg/kg
Endpoint: concentration at 1 h (ng/g)
Note: unit ng/g is implicit; provide only the numeric part.

>  <Compound>
CCCCCc1cc(O)c2c(c1)OC(C)(C)[C@@H]1CCC(C)=C[C@@H]21 [THC, Δ-9-tetrahydrocannabinol]

>  <Endpoint>
concentration at 1 h

>  <Value observed>
18.5

$$$$

Now consider the entry below.
Looking up C=C(C)[C@@H]1CCC(C)=C[C@H]1c1c(O)cc(CCCCC)cc1O , I see its concentration at 1 h listed as 109

----------
Form field: concentration at 2 h (one value per entry).
# Protocol summary: Whole-blood pharmacokinetics of CBD and THC after single oral dose of Cannabis sativa extract
# Condition context: male, Wistar, rat, whole blood, oral, 30 mg/kg, Mean Concentration, blood; Cremophor; 2 h; single oral dose of extract 30 mg/kg
Note: unit ng/g is implicit; provide only the numeric part.

>  <Molecule>
C=C(C)[C@@H]1CCC(C)=C[C@H]1c1c(O)cc(CCCCC)cc1O

>  <Endpoint>
concentration at 2 h

>  <Value observed>
46.5

$$$$

Now consider the entry below.
Looking up CCCCCc1cc(O)c2c(c1)OC(C)(C)[C@@H]1CCC(C)=C[C@@H]21 [THC, Δ-9-tetrahydrocannabinol] , I see its concentration at 2 h listed as 14

----------
Form field: concentration at 1 h (one value per entry).
# Protocol summary: Brain pharmacokinetics of CBD and THC after single oral dose of Cannabis sativa extract
# Condition context: male, Wistar, rat, brain, oral, 30 mg/kg, Mean Concentration; Cremophor; 1 h; single oral dose of extract 30 mg/kg
Note: unit ng/g is implicit; provide only the numeric part.

>  <Compound>
CCCCCc1cc(O)c2c(c1)OC(C)(C)[C@@H]1CCC(C)=C[C@@H]21 [THC, Δ-9-tetrahydrocannabinol]

>  <Readout unit>
ng/g

>  <Value observed>
49.5

$$$$

Looking up C=C(C)[C@@H]1CCC(C)=C[C@H]1c1c(O)cc(CCCCC)cc1O , I see its concentration at 1 h listed as 213

----------
# Protocol summary: Brain pharmacokinetics of CBD and THC after single oral dose of Cannabis sativa extract
# Condition context: male, Wistar, rat, brain / whole blood, po, 30 mg/kg, AUCbrain:AUC whole blood (AUC0–24 ratio), Rapae oleum; single oral dose of extract 30 mg/kg
Form field: Kp (one value per entry).

Looking up CCCCCc1cc(O)c2c(c1)OC(C)(C)[C@@H]1CCC(C)=C[C@@H]21 [THC, Δ-9-tetrahydrocannabinol] , I see its Kp listed as 3.72

Looking up C=C(C)[C@@H]1CCC(C)=C[C@H]1c1c(O)cc(CCCCC)cc1O [CBD, cannabidiol] , I see its Kp listed as 1.54

----------
# Protocol summary: Brain pharmacokinetics of CBD and THC after single oral dose of Cannabis sativa extract
# Condition context: male, Wistar, rat, brain, po, 30 mg/kg, AUC0–24, brain; Cremophor; single oral dose of extract 30 mg/kg
Form field: AUC(0-t) (one value per entry).
Note: unit ng·h/mL is implicit; provide only the numeric part.

>  <Molecule>
CCCCCc1cc(O)c2c(c1)OC(C)(C)[C@@H]1CCC(C)=C[C@@H]21 [THC, Δ-9-tetrahydrocannabinol]

>  <Endpoint>
AUC(0-t)

>  <Readout unit>
ng·h/mL

>  <Value observed>
656

$$$$

Now consider the entry below.
Looking up C=C(C)[C@@H]1CCC(C)=C[C@H]1c1c(O)cc(CCCCC)cc1O , I see its AUC(0-t) listed as 943
